Reference source: ChEMBL document CHEMBL3124779

assay: Kinetic solubility of the compound in 10 mM of phosphate buffer at pH 7.2 by CLND method; type: physicochemical; details: read-out: Kinetic_solubility
MEASURE: solubility kinetic (µM)

Examples with answers:
COMPOUND: COC(=O)N[C@H](C(=O)N1CCC[C@H]1C(=O)Nc1ccc([C@@H]2CC[C@@H](c3ccc(NC(=O)[C@@H]4CCCN4C(=O)[C@@H](NC(=O)OC)C(C)(C)C)cc3)N2c2ccc(F)cc2)cc1)C(C)(C)C
solubility kinetic (µM): 4.4
//
COMPOUND: COC(=O)N[C@H](C(=O)N1CCC[C@H]1C(=O)Nc1ccc([C@@H]2CC[C@@H](c3ccc(NC(=O)[C@@H]4CCCN4C(=O)[C@@H](NC(=O)OC)C(C)C)cc3)N2c2ccc(C(C)(C)C)cc2)cc1)C(C)C
solubility kinetic (µM): 2.7
//
COMPOUND: COC(=O)N[C@H](C(=O)N1CCC[C@H]1C(=O)Nc1ccc([C@@H]2CC[C@@H](c3ccc(NC(=O)[C@@H]4CCCN4C(=O)[C@@H](NC(=O)OC)[C@H]4CCOC4)cc3)N2c2ccc(F)cc2)cc1)[C@H]1CCOC1
solubility kinetic (µM): 9.7
//
COMPOUND: COC(=O)N[C@H](C(=O)N1CCC[C@H]1C(=O)Nc1ccc([C@H]2CC[C@H](c3ccc(NC(=O)[C@@H]4CCCN4C(=O)[C@@H](NC(=O)OC)C(C)C)cc3)N2c2ccc(C(F)(F)F)cc2)cc1)C(C)C
solubility kinetic (µM): 3.2
//
COMPOUND: COC(=O)N[C@H](C(=O)N1CCC[C@H]1C(=O)Nc1ccc([C@H]2CC[C@H](c3ccc(NC(=O)[C@@H]4CCCN4C(=O)[C@@H](NC(=O)OC)C(C)C)cc3)N2c2ccc(C(C)(C)C)cc2)cc1)C(C)C
solubility kinetic (µM): 1.8
//
COMPOUND: COC(=O)N[C@H](C(=O)N1CCC[C@H]1C(=O)Nc1ccc([C@@H]2CC[C@@H](c3ccc(NC(=O)[C@@H]4CCCN4C(=O)[C@@H](NC(=O)OC)C(C)C)cc3)N2c2ccc(C(F)(F)F)cc2)cc1)C(C)C
solubility kinetic (µM): 3.4

[1] COC(=O)N[C@H](C(=O)N1CCC[C@H]1C(=O)Nc1ccc([C@H]2CC[C@H](c3ccc(NC(=O)[C@@H]4CCCN4C(=O)[C@@H](NC(=O)OC)[C@@H](C)OC)cc3)N2c2ccc(F)cc2)cc1)[C@@H](C)OC
[2] COC(=O)N[C@H](C(=O)N1CCC[C@H]1C(=O)Nc1ccc([C@H]2CC[C@H](c3ccc(NC(=O)[C@@H]4CCCN4C(=O)[C@@H](NC(=O)OC)C(C)(C)C)cc3)N2c2ccc(F)cc2)cc1)C(C)(C)C
[3] COC(=O)N[C@H](C(=O)N1CCC[C@H]1C(=O)Nc1ccc([C@@H]2CC[C@@H](c3ccc(NC(=O)[C@@H]4CCCN4C(=O)[C@@H](NC(=O)OC)C(C)(C)C)cc3)N2c2ccc(C(C)(C)C)cc2)cc1)C(C)(C)C
Ask: Returns the items ordered by solubility kinetic, from maximum to minimum. The reply should contain the labels ordered as requested.
Result: 1, 2, 3

---

assay: Half life in monkey at 1 mg/kg, iv; format: ADME, organism-based, Macaca mulatta; design: dose 1 mg/kg, route intravenous; settings: rhesus monkey, in vivo
MEASURE: half-life (h)

COMPOUND: COC(=O)N[C@H](C(=O)N1CCC[C@H]1C(=O)Nc1ccc([C@@H]2CC[C@@H](c3ccc(NC(=O)[C@@H]4CCCN4C(=O)[C@@H](NC(=O)OC)C(C)C)cc3)N2c2ccc(C(C)(C)C)cc2)cc1)C(C)C
half-life, h: 4.4

[P] COC(=O)N[C@H](C(=O)N1CCC[C@H]1C(=O)Nc1ccc([C@H]2CC[C@H](c3ccc(NC(=O)[C@@H]4CCCN4C(=O)[C@@H](NC(=O)OC)C(C)C)cc3)N2c2ccc(F)cc2)cc1)C(C)C
[Q] COC(=O)N[C@H](C(=O)N1CCC[C@H]1C(=O)Nc1ccc([C@H]2CC[C@H](c3ccc(NC(=O)[C@@H]4CCCN4C(=O)[C@@H](NC(=O)OC)C(C)(C)C)cc3)N2c2ccc(F)cc2)cc1)C(C)(C)C
Ask: Which entry has a larger number for half-life, P or Q ? Pick one; state its label.
Result: Q
(Q: 4.6 h, P: 0.8 h)
